# EXPERIMENTAL_SYSTEM: BCAT2 (Homo sapiens)
# Sequence (O15382 28-392): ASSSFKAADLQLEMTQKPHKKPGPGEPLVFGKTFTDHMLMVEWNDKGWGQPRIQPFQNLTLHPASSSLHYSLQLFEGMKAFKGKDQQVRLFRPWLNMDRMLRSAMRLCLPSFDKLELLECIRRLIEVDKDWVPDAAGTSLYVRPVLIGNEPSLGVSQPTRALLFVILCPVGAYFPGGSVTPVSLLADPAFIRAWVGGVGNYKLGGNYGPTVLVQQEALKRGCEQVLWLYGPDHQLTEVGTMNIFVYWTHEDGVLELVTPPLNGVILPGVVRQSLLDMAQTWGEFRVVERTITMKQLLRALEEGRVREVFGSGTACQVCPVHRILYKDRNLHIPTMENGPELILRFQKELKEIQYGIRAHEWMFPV
# ASSAY_DETAILS: BCAT2 in vitro enzyme inhibition assay (hBCAT2, glutamate dehydrogenase/diaphorase/resazurin coupled fluorescence read)
# Assay type: biochemical
# TEST_SETTINGS: hBCAT2, 1 h preincubation at 25° C., one hour reaction; average where tested multiple times
Form field: IC50 (one value per entry).

Consider the reported IC50 for these compounds:
COMPOUND: O=C(N[C@H]1CCC[C@@H](n2c(-c3ccccc3OCCO)nc3cnc(-c4nc[nH]n4)cc32)C1)c1cc(F)ccc1F [Example 85]
EXPERIMENTAL_VALUE: < 0.1 µM
--
COMPOUND: CO[C@H]1C[C@H](NC(=O)c2cc(Cl)ccn2)C[C@H](n2c(CC(C)C)nc3cnc(-c4ncccn4)cc32)C1 [Example 117]
EXPERIMENTAL_VALUE: < 0.1 µM
--
COMPOUND: O=C1c2cc(Cl)ccc2NCN1[C@H]1CCC[C@@H](n2c(-c3ccccc3F)nc3cnc(-c4nc[nH]n4)cc32)C1 [Example 206]
EXPERIMENTAL_VALUE: < 0.1 µM
--
COMPOUND: O=C1c2c(F)cccc2CN1[C@H]1CCC[C@@H](n2c(-c3ccccc3F)nc3cnc(-c4nc[nH]n4)cc32)C1 [Example 175]
EXPERIMENTAL_VALUE: < 0.1 µM
--
COMPOUND: CO[C@H]1C[C@H](N2Cc3ccc(F)cc3C2=O)C[C@H](n2c(-c3c(O)cccc3F)nc3cnc(-c4nc[nH]n4)cc32)C1 [Example 192]
EXPERIMENTAL_VALUE: < 0.1 µM
--
COMPOUND: CCN1C[C@@H](NC(=O)c2cc(F)ccn2)C[C@@H](n2c(-c3ccccc3F)nc3cnc(-c4nc[nH]n4)cc32)C1 [Example 149]
EXPERIMENTAL_VALUE: 0.5 to 1 µM
--
COMPOUND: CCNc1ccc(Cl)cc1C(=O)N[C@H]1CCC[C@@H](n2c(-c3ccccc3F)nc3cnc(-c4nc[nH]n4)cc32)C1 [Example 32]
EXPERIMENTAL_VALUE: 0.1 to 0.5 µM
--
COMPOUND: O=C1c2cc(F)ccc2CN1[C@H]1CCC[C@@H](n2c(-c3ncccc3F)nc3cnc(-c4nc[nH]n4)cc32)C1 [Example 170]
EXPERIMENTAL_VALUE: < 0.1 µM

Now examine the next entry.
IN: Which measured IC50 belongs to CN1C[C@H](NC(=O)c2cc(F)ccn2)C[C@H](n2c(-c3ccccc3OCCO)nc3cnc(-c4ncccn4)cc32)C1 [Example 163] , tested on BCAT2 (Homo sapiens)?
OUT: < 0.1 µM

Ref: patent US20260334439A1
